The measurements presented in this section are drawn from the supplement of paper PMC9694430.

test system: LOC_OS05G07850-cb002; experiment: thermal shift delta Tm vs DMSO control; higher = stronger stabilization (binding); details: 12.5 µM; protein concentration 2 µM;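 note: purified Escherichia coli-expressed rice kinase domain construct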
readout-type: thermal shift delta Tm
Note: state the figure and append the unit.

*Q* Could you please provide reported thermal shift delta Tm for COc1cc(N2CCN(C)CC2)ccc1Nc1ncc2c(n1)N(C)c1ccccc1C(=O)N2 ? Thanks!
*A* 3.08 °C

*Q* Could you please provide reported thermal shift delta Tm for Cn1cc(/C=C2\C(=O)Nc3cccnc32)c2ccccc21 ? Thanks!
*A* 9.12 °C

*Q* Could you please provide reported thermal shift delta Tm for CC[C@H](CO)Nc1nc(NCc2ccccc2)c2ncn(C(C)C)c2n1 [Roscovitine (Seliciclib,CYC202)] ? Thanks!
*A* 0.09 °C

*Q* Could you please provide reported thermal shift delta Tm for NC(=O)c1cnc2[nH]ccc2c1N[C@@H]1[C@@H]2CC3C[C@H]1C[C@@](O)(C3)C2 ? Thanks!
*A* 12.5 °C

*Q* Could you please provide reported thermal shift delta Tm for CC(C)(C)NS(=O)(=O)c1cncc(-c2cc(F)c3nc(N)nn3c2)c1 ? Thanks!
*A* 1.74 °C

*Q* Could you please provide reported thermal shift delta Tm for COc1ccc2c(c1)[C@]1(C[C@H]1c1ccc3c(/C=C/c4ccc(CN5C[C@@H](C)O[C@@H](C)C5)cc4)n[nH]c3c1)C(=O)N2 ? Thanks!
*A* 12.3 °C

*Q* Could you please provide reported thermal shift delta Tm for Cc1ccc(C(=O)Nc2ccc(CN3CCN(C)CC3)c(C(F)(F)F)c2)cc1C#Cc1cnc2[nH]ncc2c1 [GZD824 Dimesylate] ? Thanks!
*A* 13.9 °C

*Q* Could you please provide reported thermal shift delta Tm for CCN(CC)CCCC(C)Nc1ccnc2cc(Cl)ccc12 (stereo not drawn) [Chloroquine Phosphate] ? Thanks!
*A* 0.78 °C
